Test system: HT-29 (monolayer culture of a human colon carcinoma)
Assay protocol: Cytotoxic activity screening, HT-29 cells
Assay type: cell-based
Stated conditions: Homo sapiens, HT-29, 72 h, three days of incubation, Crystal Violet, approximate IC50
Method: Cell Cultures. […] A separate set of cultures without drug was seeded as control growth to ensure that cells remained in exponential phase of growth. […] An approximately IC50 was determined by comparing the growth in wells with drug to the growth in wells control.
Form field: IC50 (one value per entry).
Quantity name: IC50 (ng/mL)

Compound	Observed value
COc1c(C)cc2c(c1O)[C@@H]1C3[C@@H]4SCC(NCc5ccccc5)C(=O)OC[C@@H](c5c6c(c(C)c(OC(C)=O)c54)OCO6)N3[C@@H](O)[C@H](C2)N1C (some centres unmarked)	0.5
COc1c(C)cc2c(c1O)[C@@H]1C3[C@@H]4SC[C@H](NC(=O)CCCCC5SCC6NC(=O)NC65)C(=O)OC[C@@H](c5c6c(c(C)c(OC(C)=O)c54)OCO6)N3[C@@H](C#N)[C@H](C2)N1C (some centres unmarked)	5
COc1c(C)cc2c(c1O)[C@@H]1C3[C@@H]4SC[C@@H](NC(C)=O)C(=O)OC[C@@H](c5c6c(c(C)c(O)c54)OCO6)N3[C@@H](C#N)[C@H](C2)N1C (some centres unmarked)	10
COc1c(C)cc2c(c1O)[C@@H]1C3[C@@H]4SC[C@H](NC(=O)c5ccccc5)C(=O)OC[C@@H](c5c6c(c(C)c(OC(C)=O)c54)OCO6)N3[C@@H](O)[C@H](C2)N1C (some centres unmarked)	0.5
COc1c(C)cc2c(c1O)[C@@H]1C3[C@@H]4SC[C@H](NC(=O)C(C)NC(=O)/C=C/c5ccccc5)C(=O)OC[C@@H](c5c6c(c(C)c(OC(C)=O)c54)OCO6)N3[C@@H](O)[C@H](C2)N1C (some centres unmarked)	1

----------
Tested on: HT-29 (monolayer culture of a human colon carcinoma)
Assay protocol: Cytotoxic activity screening, HT-29 cells
Assay type: cell-based
Stated conditions: Homo sapiens, HT-29, 72 h, three days of incubation, Crystal Violet, approximate IC50
Quantity name: log10 of IC50 (log10 of the value in ng/mL)

Compound	log10 of IC50
COc1c(C)cc2c(c1O)[C@@H]1C3[C@@H]4SC[C@H](NC(=O)C(NC(=O)C(C)NC(=O)/C=C/c5ccccc5)C(C)C)C(=O)OC[C@@H](c5c6c(c(C)c(OC(C)=O)c54)OCO6)N3[C@@H](O)[C@H](C2)N1C (stereo partly drawn)	0.70
COc1c(C)cc2c(c1O)[C@@H]1C3[C@@H]4SC[C@H](NC(=O)C(C)NC(C)=O)C(=O)OC[C@@H](c5c6c(c(C)c(OC(C)=O)c54)OCO6)N3[C@@H](C#N)[C@H](C2)N1C (stereo partly drawn)	0.00
CCCCCCCC(=O)O[C@H]1CS[C@@H]2c3c(OC(C)=O)c(C)c4c(c3[C@H](COC1=O)N1C2[C@H]2c3c(cc(C)c(OC)c3O)C[C@@H]([C@@H]1C#N)N2C)OCO4 (stereo partly drawn) [Compound 17e]	0.00
COc1c(C)cc2c(c1O)[C@@H]1C3[C@@H]4SC[C@H](N5C(=O)c6ccccc6C5=O)C(=O)OC[C@@H](c5c6c(c(C)c(OC(C)=O)c54)OCO6)N3[C@@H](C#N)[C@H](C2)N1C (stereo partly drawn)	0.70
COc1c(C)cc2c(c1O)[C@@H]1C3[C@@H]4SC[C@H](NC(=O)C(NC(=O)/C=C/c5ccccc5)C(C)C)C(=O)OC[C@@H](c5c6c(c(C)c(OC(C)=O)c54)OCO6)N3[C@@H](O)[C@H](C2)N1C (stereo partly drawn)	-0.30
COc1c(C)cc2c(c1O)[C@@H]1C3[C@@H]4SC[C@H](OC(=O)/C=C/c5ccccc5)C(=O)OC[C@@H](c5c6c(c(C)c(OC(C)=O)c54)OCO6)N3[C@@H](O)[C@H](C2)N1C (stereo partly drawn) [Compound 21h]	0.00
COc1c(C)cc2c(c1O)[C@@H]1C3[C@@H]4SC[C@H](OC(=O)/C=C/c5ccccc5)C(=O)OC[C@@H](c5c6c(c(C)c(OC(C)=O)c54)OCO6)N3[C@@H](C#N)[C@H](C2)N1C (stereo partly drawn) [Compound 17h]	-1.00
COc1c(C)cc2c(c1O)[C@@H]1C3[C@@H]4SC[C@H](NC(=O)C(NC(=O)C(C)N)C(C)C)C(=O)OC[C@@H](c5c6c(c(C)c(OC(C)=O)c54)OCO6)N3[C@@H](O)[C@H](C2)N1C (stereo partly drawn)	0.00
CCCCCCCCCCCCCCCC(=O)N[C@H]1CS[C@@H]2c3c(OC(C)=O)c(C)c4c(c3[C@H](COC1=O)N1C2[C@H]2c3c(cc(C)c(OC)c3O)C[C@@H]([C@@H]1O)N2C)OCO4 (stereo partly drawn)	2.00

----------
System: HT-29 (monolayer culture of a human colon carcinoma)
Assay protocol: Cytotoxic activity screening, HT-29 cells
Format: cell-based
Stated conditions: Homo sapiens, HT-29, 72 h, three days of incubation, Crystal Violet, approximate IC50
IC50 listing for selected molecules.
Quantity name: IC50 (ng/mL)

Molecule	Readout unit	Observed value
COc1c(C)cc2c(c1O)[C@@H]1C3[C@@H]4SC[C@H](NC(=O)/C=C/c5ccc(C(F)(F)F)cc5)C(=O)OC[C@@H](c5c6c(c(C)c(OC(C)=O)c54)OCO6)N3[C@@H](C#N)[C@H](C2)N1C (some centres unmarked) [Compound 3i]	ng/mL	5
COc1c(C)cc2c(c1O)[C@@H]1C3[C@@H]4SC[C@@H](NC(C)=O)C(=O)OC[C@@H](c5c6c(c(C)c(OC(C)=O)c54)OCO6)N3[C@@H](C#N)[C@H](C2)N1C (some centres unmarked) [Compound 3a]	ng/mL	0.5
CCCC(=O)O[C@H]1CS[C@@H]2c3c(OC(C)=O)c(C)c4c(c3[C@H](COC1=O)N1C2[C@H]2c3c(cc(C)c(OC)c3O)C[C@@H]([C@@H]1O)N2C)OCO4 (some centres unmarked) [Compound 21c]	ng/mL	1
COc1c(C)cc2c(c1O)[C@@H]1C3[C@@H]4SC[C@H](NC(=O)C(NC(=O)C(C)N)C(C)C)C(=O)OC[C@@H](c5c6c(c(C)c(OC(C)=O)c54)OCO6)N3[C@@H](C#N)[C@H](C2)N1C (some centres unmarked) [Compound 3s]	ng/mL	1
COC(=O)c1ccccc1C(=O)N[C@H]1CS[C@@H]2c3c(OC(C)=O)c(C)c4c(c3[C@H](COC1=O)N1C2[C@H]2c3c(cc(C)c(OC)c3O)C[C@@H]([C@@H]1C#N)N2C)OCO4 (some centres unmarked) [Compound 6]	ng/mL	1

----------
Below are GI50 values measured for MEL-28.
Quantity name: GI50 (nM)

Molecule	System name	Quantity name	Readout unit	Observed value
COc1c(C)cc2c(c1O)[C@@H]1[C@@H]3[C@@H]4SC[C@H](NC(=O)c5cc(C)on5)C(=O)OC[C@@H](c5c6c(c(C)c(OC(C)=O)c54)OCO6)N3[C@@H](C#N)[C@H](C2)N1C [Compound 15e]	MEL-28	GI50	nM	2.58
COc1c(C)cc2c(c1O)[C@@H]1[C@@H]3[C@@H]4SC[C@H](NC(=O)c5cnn(-c6ccccc6)c5C(F)(F)F)C(=O)OC[C@@H](c5c6c(c(C)c(OC(C)=O)c54)OCO6)N3[C@@H](O)[C@H](C2)N1C [Compound 16e]	MEL-28	GI50	nM	29.8

----------
Test system: HT-29 (monolayer culture of a human colon carcinoma)
Assay protocol: Cytotoxic activity screening, HT-29 cells
Type: cell-based
Stated conditions: Homo sapiens, HT-29, 72 h, three days of incubation, Crystal Violet, approximate IC50
Collected IC50 values appear next to each entry.

Compound	Readout unit	IC50
COc1c(C)cc2c(c1O)[C@@H]1C3[C@@H]4SC[C@H](OS(C)(=O)=O)C(=O)OC[C@@H](c5c6c(c(C)c(OC(C)=O)c54)OCO6)N3[C@@H](O)[C@H](C2)N1C (stereo partly drawn) [Compound 21ll]	ng/mL	1
COc1c(C)cc2c(c1O)[C@@H]1C3[C@@H]4SC[C@H](NC(=O)CC(C)C)C(=O)OC[C@@H](c5c6c(c(C)c(OC(C)=O)c54)OCO6)N3[C@@H](C#N)[C@H](C2)N1C (stereo partly drawn)	ng/mL	0.1
COc1c(C)cc2c(c1O)[C@@H]1C3[C@@H]4SC[C@H](O)C(=O)OC[C@@H](c5c6c(c(C)c(OC(C)=O)c54)OCO6)N3[C@@H](C#N)[C@H](C2)N1C (stereo partly drawn)	ng/mL	5

----------
Test system: MEL-28
Assay protocol: Cytotoxic assay, sulforhodamine B (SRB), MEL-28
Type: cell-based
Stated conditions: Homo sapiens, SK-MEL-28; MEL-28 cells, 48 hours exposure, SRB method
// assign MET if GI50 falls strictly below 3 nM, else NOT MET (ties count as NOT MET)

Molecule	Qualitative label
COc1c(C)cc2c(c1O)[C@@H]1[C@@H]3[C@@H]4SC[C@H](NC(=O)c5cc(C)on5)C(=O)OC[C@@H](c5c6c(c(C)c(OC(C)=O)c54)OCO6)N3[C@@H](O)[C@H](C2)N1C [Compound 16f]	NOT MET
COc1c(C)cc2c(c1O)[C@@H]1[C@@H]3[C@@H]4SC[C@H](NC(=O)c5cccnc5Cl)C(=O)OC[C@@H](c5c6c(c(C)c(OC(C)=O)c54)OCO6)N3[C@@H](C#N)[C@H](C2)N1C [Compound 15c]	MET
COc1c(C)cc2c(c1O)[C@@H]1[C@@H]3[C@@H]4SC[C@H](NC(=O)[C@@H]5CCCN5C(=O)OC(C)(C)C)C(=O)OC[C@@H](c5c6c(c(C)c(OC(C)=O)c54)OCO6)N3[C@@H](O)[C@H](C2)N1C [Compound 16b]	MET
COc1c(C)cc2c(c1O)[C@@H]1[C@@H]3[C@@H]4SC[C@H](NC(=O)c5cc6ccccc6oc5=O)C(=O)OC[C@@H](c5c6c(c(C)c(OC(C)=O)c54)OCO6)N3[C@@H](C#N)[C@H](C2)N1C [Compound 15a]	NOT MET
COc1c(C)cc2c(c1O)[C@@H]1[C@@H]3[C@@H]4SC[C@H](NC(=O)c5cccnc5Cl)C(=O)OC[C@@H](c5c6c(c(C)c(OC(C)=O)c54)OCO6)N3[C@@H](O)[C@H](C2)N1C [Compound 16d]	MET
COc1c(C)cc2c(c1O)[C@@H]1[C@@H]3[C@@H]4SC[C@H](NC(=O)[C@@H]5CCCN5)C(=O)OC[C@@H](c5c6c(c(C)c(OC(C)=O)c54)OCO6)N3[C@@H](O)[C@H](C2)N1C [Compound 16c]	MET
